# System Under Test: Zap1 (UniProt P47043)
# Sequence: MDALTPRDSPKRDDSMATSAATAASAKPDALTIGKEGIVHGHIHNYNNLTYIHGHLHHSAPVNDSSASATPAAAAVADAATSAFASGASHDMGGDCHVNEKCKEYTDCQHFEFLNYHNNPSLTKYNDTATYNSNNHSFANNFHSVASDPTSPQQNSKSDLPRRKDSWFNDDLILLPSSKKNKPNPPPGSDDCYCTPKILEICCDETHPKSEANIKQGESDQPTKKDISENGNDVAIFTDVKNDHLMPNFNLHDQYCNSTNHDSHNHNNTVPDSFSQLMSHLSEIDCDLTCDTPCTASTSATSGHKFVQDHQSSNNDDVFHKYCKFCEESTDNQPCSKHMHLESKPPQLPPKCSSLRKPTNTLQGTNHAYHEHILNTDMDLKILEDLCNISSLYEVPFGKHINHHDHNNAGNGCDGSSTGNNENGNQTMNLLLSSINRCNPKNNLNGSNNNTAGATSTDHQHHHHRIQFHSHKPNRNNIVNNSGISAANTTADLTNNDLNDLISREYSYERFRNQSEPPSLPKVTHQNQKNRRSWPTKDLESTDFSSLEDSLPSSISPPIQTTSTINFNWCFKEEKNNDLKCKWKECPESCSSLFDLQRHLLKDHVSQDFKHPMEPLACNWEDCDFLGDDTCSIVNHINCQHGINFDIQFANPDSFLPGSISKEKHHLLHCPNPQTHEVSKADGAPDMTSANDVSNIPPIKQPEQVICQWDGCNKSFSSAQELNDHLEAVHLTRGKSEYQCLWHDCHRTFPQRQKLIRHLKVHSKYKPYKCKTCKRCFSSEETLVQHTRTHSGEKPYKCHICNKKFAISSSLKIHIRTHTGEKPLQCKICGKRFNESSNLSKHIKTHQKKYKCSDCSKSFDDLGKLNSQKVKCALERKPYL
# Measurement Description: PBM E-score (8-mer binding enrichment) (E-score (-0.5 to 0.5)); higher = stronger / more preferred TF binding
# Condition Notes: protein concentration: 200 nM; construct: GST-full length
In all, about 33,000 sequences were measured (“E-score (-0.5 to 0.5)”: median about -0.021, highest 2% from about 0.32 on). The sample holds the highest values, similar sequences and a random draw of the others, so the mix is not that of the screen.
Everything with PBM E-score lower than 0.2 is FALSE; everything else, including exactly 0.2, is TRUE.

Residue String: TACCTATA
Group: TRUE
--
Residue String: ATAACTCC
Group: FALSE
--
Residue String: TATCCGGA
Group: FALSE
--
Residue String: CATAACGG
Group: FALSE
--
Residue String: CACCTATA
Group: FALSE
--
Residue String: CATAACCG
Group: TRUE
--
Residue String: TACCTAGA
Group: FALSE

---

Attribute: PBM E-score
# System Under Test: Zap1 (UniProt P47043)
# Sequence: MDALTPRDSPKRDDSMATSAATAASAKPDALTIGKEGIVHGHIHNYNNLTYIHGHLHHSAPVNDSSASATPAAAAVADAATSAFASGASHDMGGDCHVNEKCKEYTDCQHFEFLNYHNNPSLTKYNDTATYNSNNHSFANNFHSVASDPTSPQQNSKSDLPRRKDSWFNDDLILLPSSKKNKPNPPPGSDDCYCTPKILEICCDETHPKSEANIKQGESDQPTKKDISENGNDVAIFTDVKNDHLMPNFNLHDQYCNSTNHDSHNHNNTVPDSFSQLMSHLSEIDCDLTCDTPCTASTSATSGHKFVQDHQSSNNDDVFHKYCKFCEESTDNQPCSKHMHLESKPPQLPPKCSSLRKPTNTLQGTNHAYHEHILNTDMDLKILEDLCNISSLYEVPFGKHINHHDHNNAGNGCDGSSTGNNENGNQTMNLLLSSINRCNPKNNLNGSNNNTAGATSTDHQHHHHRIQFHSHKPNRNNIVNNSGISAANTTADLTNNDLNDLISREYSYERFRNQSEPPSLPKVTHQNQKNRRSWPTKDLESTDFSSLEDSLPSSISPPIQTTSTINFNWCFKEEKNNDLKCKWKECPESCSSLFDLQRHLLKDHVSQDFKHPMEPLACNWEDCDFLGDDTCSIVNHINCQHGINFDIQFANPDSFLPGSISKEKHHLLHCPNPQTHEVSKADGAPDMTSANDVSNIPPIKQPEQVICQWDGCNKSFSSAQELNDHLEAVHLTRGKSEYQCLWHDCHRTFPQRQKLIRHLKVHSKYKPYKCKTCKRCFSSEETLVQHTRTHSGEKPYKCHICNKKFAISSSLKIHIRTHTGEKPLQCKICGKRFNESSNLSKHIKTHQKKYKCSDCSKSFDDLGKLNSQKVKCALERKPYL
# Measurement Description: PBM E-score (8-mer binding enrichment) (E-score (-0.5 to 0.5)); higher = stronger / more preferred TF binding
# Condition Notes: protein concentration: 200 nM; construct: GST-full length
The full ranking holds about 33,000 sequences; the median of “E-score (-0.5 to 0.5)” is about -0.021, and the highest 2% start at about 0.32. For the sample, the highest values were picked, then their nearest neighbours and some sequences at random.
Outcome Measure: PBM E-score

Residue String: AGTACCCA
Measured Value: 0.289

Residue String: GTGCGCCA
Measured Value: -0.175

Residue String: CTACCGCA
Measured Value: 0.00616

Residue String: CTTTGCGC
Measured Value: -0.0424

Residue String: ATACCGCA
Measured Value: 0.0517

Residue String: AACCCGCA
Measured Value: 0.314

Residue String: GAAGTGGC
Measured Value: -0.106

Residue String: AGTACTCA
Measured Value: -0.0985

Residue String: GCCGGTGA
Measured Value: 0.0983

Residue String: CCTAGCAA
Measured Value: 0.0808

Residue String: CGTACCTA
Measured Value: -0.117

Residue String: ACCGGTTA
Measured Value: 0.372

Residue String: AAACCGAA
Measured Value: 0.114

Residue String: CCTAACCC
Measured Value: 0.264

Residue String: CAACCGCA
Measured Value: 0.106

Residue String: CACCCGCA
Measured Value: -0.0495
